- Experimental System: OsWOX13 (Oryza sativa, UniProt Q5QMM3 1-267)
- Sequence: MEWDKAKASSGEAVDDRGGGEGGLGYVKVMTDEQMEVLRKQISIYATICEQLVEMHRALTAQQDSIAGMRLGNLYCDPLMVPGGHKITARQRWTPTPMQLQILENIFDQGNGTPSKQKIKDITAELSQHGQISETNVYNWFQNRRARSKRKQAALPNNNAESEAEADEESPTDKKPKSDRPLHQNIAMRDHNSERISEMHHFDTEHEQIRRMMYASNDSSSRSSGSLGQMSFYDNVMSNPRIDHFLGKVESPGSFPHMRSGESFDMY
- Measurement Notes: protein-binding microarray (RPBM); PBS, 2% BSA, 51.3 ng/ul salmon testes DNA, 50 uM zinc acetate, 200 nM TF, 25 C, 1 h; high values mean tight binding
- Measurement Setup: protein: recombinant; tags: N-terminal polyhistidine and DsRed monomer fusion (pET32a); label: CyDye5-dUTP incorporated in the synthesized complementary strand; 3' TTTTT single-stranded linker to array surface; dsDNA, one strand shown
Whole data set: some 35,000 sequences, median “fluorescence intensity (a.u.)” near 10,000, cut for the highest 2% near 52,000. Shown is part of a subset that was picked to be rich in the highest values.
Can you tell me binding signal for the items I'm about to list?

Previously resolved entries follow.
# Sequence Code, binding signal
measured = [
    ("GCTCTAATAATTGAATAATTTGATTTGTTTTATTTAAATCCGGAGTCACCTAGTGCAG", "30100 fluorescence intensity (a.u.)"),
    ("TATGTAATTATTATTTATTTTATTGTGATTTGATTCATCACGGAGTCACCTAGTGCAG", "31400 fluorescence intensity (a.u.)"),
    ("TGTTGATTGTTGTGTTTAATTGGAGATTGACTATTGAATCCGGAGTCACCTAGTGCAG", "60200 fluorescence intensity (a.u.)"),
    ("ATAAAGTGATTTAATTTTAGTTAAAGTTAAACTACTTTAACGGAGTCACCTAGTGCAG", "21100 fluorescence intensity (a.u.)"),
]

Then this sequence:
Task item: Quick check: binding signal on OsWOX13 (Oryza sativa, UniProt Q5QMM3 1-267), item `CTAAGCTGTGATTTCTTTTCTTTATGTCACCACCTCCAAACGGAGTCACCTAGTGCAG` ?
Reply: 3460 fluorescence intensity (a.u.)

====

- Experimental System: OsWOX13 (Oryza sativa, UniProt Q5QMM3 1-267)
- Sequence: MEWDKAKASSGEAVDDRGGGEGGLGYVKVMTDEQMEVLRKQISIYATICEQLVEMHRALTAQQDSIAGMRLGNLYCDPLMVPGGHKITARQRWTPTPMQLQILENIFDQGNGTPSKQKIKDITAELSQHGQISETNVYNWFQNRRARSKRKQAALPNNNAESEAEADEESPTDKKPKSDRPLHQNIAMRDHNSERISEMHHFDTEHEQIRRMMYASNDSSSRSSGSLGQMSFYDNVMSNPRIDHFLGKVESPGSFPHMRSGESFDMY
- Measurement Notes: protein-binding microarray (RPBM); PBS, 2% BSA, 51.3 ng/ul salmon testes DNA, 50 uM zinc acetate, 200 nM TF, 25 C, 1 h; high values mean tight binding
- Measurement Setup: protein: recombinant; tags: N-terminal polyhistidine and DsRed monomer fusion (pET32a); label: CyDye5-dUTP incorporated in the synthesized complementary strand; 3' TTTTT single-stranded linker to array surface; dsDNA, one strand shown
The full ranking holds about 35,000 sequences; the median of “fluorescence intensity (a.u.)” is about 10,000, and the highest 2% start at about 52,000. Only a selection was taken, and the highest values are over-represented in it overall.
Measured Metric: binding signal

# Sequence Code, Experimental System, binding signal
measured = [
    ("ATATTTAATTTGATACTACCTATAAACCGCACAAGCTGCACGGAGTCACCTAGTGCAG", "OsWOX13 (Oryza sativa, UniProt Q5QMM3 1-267)", "16800 fluorescence intensity (a.u.)"),
    ("TCTTTGATTGGTGGCGGTGTTGAATTGAATTGAATTGATCCGGAGTCACCTAGTGCAG", "OsWOX13 (Oryza sativa, UniProt Q5QMM3 1-267)", "46300 fluorescence intensity (a.u.)"),
    ("AAAATTGATATGTAATTATGACACACTTACGTCGGATATGCGGAGTCACCTAGTGCAG", "OsWOX13 (Oryza sativa, UniProt Q5QMM3 1-267)", "64500 fluorescence intensity (a.u.)"),
    ("ATTTGATTGACGAGGTATAGTAAAATGCGTCAACTTATGTCGGAGTCACCTAGTGCAG", "OsWOX13 (Oryza sativa, UniProt Q5QMM3 1-267)", "63200 fluorescence intensity (a.u.)"),
    ("GAGCCTAATTACGCCATGATTTGACAATGTGGTGCTACAGCGGAGTCACCTAGTGCAG", "OsWOX13 (Oryza sativa, UniProt Q5QMM3 1-267)", "39300 fluorescence intensity (a.u.)"),
]

For every listed record, write down its binding signal.
1. AGCTAGGTCAATCATGCATGCATGAATATGTGGCCGAGTTCGGAGTCACCTAGTGCAG
2. TGTAAATATATTATGATTGTAGTATAACTTATATAGTATTCGGAGTCACCTAGTGCAG
3. TGTAATTTGTTCTTGTTATCATCAATCCCATATAAACTGGCGGAGTCACCTAGTGCAG
4. TCTAGCTATTAATTTGCTCTCATTTATAACTTAGCCGCTACGGAGTCACCTAGTGCAG

Reply:
["3270 fluorescence intensity (a.u.)", "10900 fluorescence intensity (a.u.)", "22300 fluorescence intensity (a.u.)", "6390 fluorescence intensity (a.u.)"]
